Where do the numbers come from? From paper PMC9266368.

# SYSTEM: membrane VEGFR-2 (mVEGFR-2) (Homo sapiens, UniProt P35968)
# Construct: endogenous in cells; host or cells: HT-29, A-549, MCF-7
# Sequence (P35968 20-1356): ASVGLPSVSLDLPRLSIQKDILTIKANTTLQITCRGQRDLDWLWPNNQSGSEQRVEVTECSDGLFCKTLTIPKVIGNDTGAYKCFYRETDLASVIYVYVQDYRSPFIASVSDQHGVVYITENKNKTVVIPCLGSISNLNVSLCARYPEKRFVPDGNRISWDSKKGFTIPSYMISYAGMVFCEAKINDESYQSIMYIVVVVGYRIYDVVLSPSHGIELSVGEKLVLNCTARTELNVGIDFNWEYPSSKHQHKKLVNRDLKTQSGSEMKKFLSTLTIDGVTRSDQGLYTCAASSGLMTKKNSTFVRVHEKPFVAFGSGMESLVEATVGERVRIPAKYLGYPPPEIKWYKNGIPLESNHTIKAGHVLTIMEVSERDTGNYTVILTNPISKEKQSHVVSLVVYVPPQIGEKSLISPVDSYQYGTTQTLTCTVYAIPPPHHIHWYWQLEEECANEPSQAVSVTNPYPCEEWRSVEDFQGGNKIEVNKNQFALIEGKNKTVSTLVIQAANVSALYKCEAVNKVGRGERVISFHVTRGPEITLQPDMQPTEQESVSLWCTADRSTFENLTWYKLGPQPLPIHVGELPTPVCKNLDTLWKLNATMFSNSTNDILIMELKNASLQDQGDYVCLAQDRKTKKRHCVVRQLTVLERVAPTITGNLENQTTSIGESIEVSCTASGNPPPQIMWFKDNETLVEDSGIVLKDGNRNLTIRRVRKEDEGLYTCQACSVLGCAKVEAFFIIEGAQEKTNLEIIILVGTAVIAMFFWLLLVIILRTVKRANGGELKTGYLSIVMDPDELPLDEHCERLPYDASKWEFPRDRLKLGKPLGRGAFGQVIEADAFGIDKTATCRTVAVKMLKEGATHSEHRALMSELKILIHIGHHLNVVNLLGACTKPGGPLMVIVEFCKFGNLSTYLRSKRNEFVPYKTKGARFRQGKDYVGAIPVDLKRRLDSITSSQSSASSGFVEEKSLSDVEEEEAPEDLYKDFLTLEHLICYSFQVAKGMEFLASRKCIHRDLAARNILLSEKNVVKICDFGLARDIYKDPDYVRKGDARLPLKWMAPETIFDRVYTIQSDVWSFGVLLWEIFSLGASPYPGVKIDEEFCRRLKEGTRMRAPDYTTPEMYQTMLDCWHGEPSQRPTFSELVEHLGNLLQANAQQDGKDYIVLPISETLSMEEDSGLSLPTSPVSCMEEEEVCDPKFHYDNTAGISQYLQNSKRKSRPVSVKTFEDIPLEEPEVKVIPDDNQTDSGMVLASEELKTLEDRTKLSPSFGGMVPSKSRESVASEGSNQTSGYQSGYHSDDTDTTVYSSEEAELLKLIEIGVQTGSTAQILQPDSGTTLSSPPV
# ASSAY NAME: Membrane VEGFR-2 relative quantification by flow cytometry
# Assay type: cell-based
# ASSAY CONDITIONS: HT-29; 24 h; 100 or 10 μM (Table 7), sorafenib 10 μM; percentage referred to DMSO control
Rule: mVEGFR-2 relative detection, HT-29 below 90% gives Criterion met. Equal to or above 90% gives Criterion not met.

Consider the following illustrative entries.
| SAMPLE SMILES | SYSTEM | CLASS LABEL |
| --- | --- | --- |
| Nc1ccc(-c2cn(Cc3cccc(Br)c3)nn2)cc1 | membrane VEGFR-2 (mVEGFR-2) (Homo sapiens, UniProt P35968) | Criterion not met |
| COc1ccccc1Cn1cc(-c2ccc(N)cc2)nn1 | membrane VEGFR-2 (mVEGFR-2) (Homo sapiens, UniProt P35968) | Criterion not met |

Lookup: Is it true that mVEGFR-2 relative detection, HT-29 reported for Cc1cccc(Cn2cc(-c3ccc(N)cc3)nn2)c1 is less than 90%?
Found: Criterion not met

Lookup: Is it true that mVEGFR-2 relative detection, HT-29 reported for Nc1ccc(-c2cn(Cc3ccccc3Br)nn2)cc1 is less than 90%?
Found: Criterion met

Lookup: Is it true that mVEGFR-2 relative detection, HT-29 reported for Cc1ccc(Cn2cc(-c3ccc(N)cc3)nn2)cc1 is less than 90%?
Found: Criterion met

Lookup: Is it true that mVEGFR-2 relative detection, HT-29 reported for Nc1ccc(-c2cn(Cc3ccc(Br)cc3)nn2)cc1 is less than 90%?
Found: Criterion met

Lookup: Is it true that mVEGFR-2 relative detection, HT-29 reported for COc1cccc(Cn2cc(-c3ccc(N)cc3)nn2)c1 is less than 90%?
Found: Criterion not met

Lookup: Is it true that mVEGFR-2 relative detection, HT-29 reported for Nc1ccc(-c2cn(Cc3ccccc3)nn2)cc1 is less than 90%?
Found: Criterion not met

Lookup: Is it true that mVEGFR-2 relative detection, HT-29 reported for Cc1ccccc1Cn1cc(-c2ccc(N)cc2)nn1 is less than 90%?
Found: Criterion met

* * *

Give tPD-L1 relative detection, A-549 for every item shown.
# SYSTEM: total PD-L1 (tPD-L1) (Homo sapiens)
# Construct: endogenous in cells; host or cells: HT-29, A-549, MCF-7
# Sequence (Q9NZQ7 19-290): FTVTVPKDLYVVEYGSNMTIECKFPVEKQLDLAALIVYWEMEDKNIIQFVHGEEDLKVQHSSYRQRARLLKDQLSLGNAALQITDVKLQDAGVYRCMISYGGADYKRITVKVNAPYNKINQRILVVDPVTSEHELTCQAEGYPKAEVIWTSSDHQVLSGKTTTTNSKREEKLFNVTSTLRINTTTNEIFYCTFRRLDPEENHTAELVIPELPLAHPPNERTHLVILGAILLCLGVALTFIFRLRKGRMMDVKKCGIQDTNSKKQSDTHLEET
# ASSAY NAME: Total PD-L1 relative quantification by flow cytometry
# Type: cell-based
# ASSAY CONDITIONS: A-549; 24 h; 100 or 10 μM (Table 7); relative to DMSO control
# Description: The study was carried out again on HT-29, A-549, and MCF-7 cell lines by flow cytometry after 24 h of treatment with the corresponding compounds. The presence of the targets in the whole cell were relatively determined by using DMSO-treated cells as a negative control and BMS-8 as a positive one for PD-L1 (Table 3). To study the effect of the compounds on every biological target in cancer cell lines the compounds were used at a 100 or 10 μM dose, depending on their IC50 and the treated cell line. […]
Numbers only, in %.

Give tPD-L1 relative detection, A-549 for each of the items listed below.
1. Nc1ccc(-c2cn(Cc3ccc(Cl)cc3)nn2)cc1
2. COc1ccc(Cn2cc(-c3ccc(N)cc3)nn2)cc1
3. Nc1ccc(-c2cn(Cc3cccc(Br)c3)nn2)cc1

Found:
81
54
76
